test system: 4-8Ins TCR; experiment: I-Ag7 SABR-II library screen, enrichment score; format: cell-based, mouse; details: EXPT2 of 3
experimental_endpoint: Enrichment score
Lab note: jot down the number only; don't add units.

Q: Tell me the measured Enrichment score of "AAVEEGIVAGGGVTLL" , please.
A: -6.366e-5

Q: // next record "ALVREGLRNVAAGANP"
A: -1.266e-5

Q: Okay, and "AGGVAVIKAGAATEV" ?
A: -2.489e-5

Q: What about "AKAAVEEGIVAGGGV" ?
A: 0.0001302

Q: What about this sequence? "AEKVRNLPAGHGLNAQ"
A: 0.0001517
